Where do these numbers come from? They come from ChEMBL document CHEMBL5344441.

# assay.info: AUC in rat at 10 mg/kg,po
# Format: ADME, organism-based
# Set-up: dose 10 mg/kg, route po
# condition.set: in vivo
property.name: AUC
Quick note: number first, unit second.

[ask] Tell me the measured AUC of NC(=O)c1ncc(N2CCCCC2)nc1Nc1ccc(C2CCN(C[C@H]3CCN(c4ccc5c(c4)C(=O)N(C4CCC(=O)NC4=O)C5=O)C3)CC2)cc1 (stereo partly specified) [ZELEBRUDOMIDE] , please.
[reply] 0.89 µM·h

---

# assay.info: Cmax in dog at 10 mg/kg,po
# Type: ADME, organism-based, Canis lupus familiaris
# Set-up: dose 10 mg/kg, route po
# condition.set: in vivo
property.name: Cmax (nM)
Respond numerically; units are nM and should not be typed.

[ask] What Cmax value was documented for this compound, NC(=O)c1ncc(N2CCCCC2)nc1Nc1ccc(C2CCN(C[C@H]3CCN(c4ccc5c(c4)C(=O)N(C4CCC(=O)NC4=O)C5=O)C3)CC2)cc1 (stereo partly specified) [ZELEBRUDOMIDE] ?
[reply] 31

---

# assay.info: Apparent permeability across apical to basolateral side in human Caco-2 cells
# Assay type: ADME, cell-based
Exercise: state measured Papp A→B for each of the compounds provided.

[ask] Requested read-out: Papp A→B. Entry: CN1CCN([C@@H]2CCCN(c3cnc(C(N)=O)c(Nc4ccc(C5CCN(C[C@H]6CCN(c7ccc8c(c7)C(=O)N(C7CCC(=O)NC7=O)C8=O)C6)CC5)cc4)n3)C2)C1=O (some centres not stated)
[reply] < 0.01 ×10⁻⁶ cm/s

[ask] Can you handle NC(=O)c1ncc(N2CCCCC2)nc1Nc1ccc(C2CCN(C[C@H]3CCN(c4ccc5c(c4)C(=O)N(C4CCC(=O)NC4=O)C5=O)C3)CC2)cc1 (some centres not stated) [ZELEBRUDOMIDE] next?
[reply] < 0.02 ×10⁻⁶ cm/s

---

For each of the molecules below, state its fraction unbound.
# assay.info: Plasma protein binding in human
# Type: ADME, cell-free
# condition.set: read-out: PPB (converted)
// no unit string in output, number only

[ask] Using the record for NC(=O)c1ncc(N2CCCCC2)nc1Nc1ccc(C2CCN(C[C@H]3CCN(c4ccc5c(c4)C(=O)N(C4CCC(=O)NC4=O)C5=O)C3)CC2)cc1 (some centres not stated) [ZELEBRUDOMIDE] , report its fraction unbound.
[reply] 0.063

[ask] Field entry: CN1CCN([C@@H]2CCCN(c3cnc(C(N)=O)c(Nc4ccc(C5CCN(C[C@H]6CCN(c7ccc8c(c7)C(=O)N(C7CCC(=O)NC7=O)C8=O)C6)CC5)cc4)n3)C2)C1=O (some centres not stated)
[reply] 0.066

---

# test.system: Protein cereblon/Tyrosine-protein kinase BTK (Mus musculus) (UniProt P35991+Q8C7D2)
# Sequence (P35991 whole entry, looked up): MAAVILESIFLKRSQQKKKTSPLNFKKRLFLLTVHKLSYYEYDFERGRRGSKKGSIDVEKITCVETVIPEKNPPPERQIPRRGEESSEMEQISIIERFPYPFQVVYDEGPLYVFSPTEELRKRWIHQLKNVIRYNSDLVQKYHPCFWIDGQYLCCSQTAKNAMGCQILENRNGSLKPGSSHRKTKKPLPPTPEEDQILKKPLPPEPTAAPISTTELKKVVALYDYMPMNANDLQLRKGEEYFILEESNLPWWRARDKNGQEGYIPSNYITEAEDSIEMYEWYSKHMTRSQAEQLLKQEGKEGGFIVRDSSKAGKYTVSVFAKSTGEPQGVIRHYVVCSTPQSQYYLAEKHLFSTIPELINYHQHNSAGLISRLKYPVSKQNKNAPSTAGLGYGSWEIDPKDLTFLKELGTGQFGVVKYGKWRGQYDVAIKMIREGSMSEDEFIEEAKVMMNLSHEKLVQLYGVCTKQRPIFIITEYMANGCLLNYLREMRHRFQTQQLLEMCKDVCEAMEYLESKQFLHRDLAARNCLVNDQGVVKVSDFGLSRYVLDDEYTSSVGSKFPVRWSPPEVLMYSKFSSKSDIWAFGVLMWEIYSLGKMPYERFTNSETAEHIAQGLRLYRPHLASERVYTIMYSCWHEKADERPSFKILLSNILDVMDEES
# Sequence (Q8C7D2 whole entry, looked up): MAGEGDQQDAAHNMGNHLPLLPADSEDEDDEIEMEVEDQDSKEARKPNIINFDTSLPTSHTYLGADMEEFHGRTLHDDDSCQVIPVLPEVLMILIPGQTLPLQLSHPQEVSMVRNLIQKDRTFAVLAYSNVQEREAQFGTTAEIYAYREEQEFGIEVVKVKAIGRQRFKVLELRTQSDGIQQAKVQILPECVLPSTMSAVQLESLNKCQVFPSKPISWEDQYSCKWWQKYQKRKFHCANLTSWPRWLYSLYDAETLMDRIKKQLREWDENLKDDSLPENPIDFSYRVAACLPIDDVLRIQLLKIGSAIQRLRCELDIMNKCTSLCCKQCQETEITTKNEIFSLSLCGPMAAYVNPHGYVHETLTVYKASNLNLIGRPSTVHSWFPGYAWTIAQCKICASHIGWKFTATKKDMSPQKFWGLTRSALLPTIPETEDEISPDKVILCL
# assay.info: In vivo protac activity at CRBN/BTK in BALB/c mouse assessed as remaining BTK protein in blood at 3 mg/kg,po administration measured after 6 hrs by flow cytomtery relative to control
# Type: functional, organism-based
Mark each entry Fulfilled if its Activity sits below 50%, and Not fulfilled for all others.

[ask] Report whether reported Activity is lower than 50% (strictly) for CN1CCN([C@@H]2CCCN(c3cnc(C(N)=O)c(Nc4ccc(N5CCC6(CCN(c7ccc8c(c7)C(=O)N(C7CCC(=O)NC7=O)C8=O)CC6)CC5)nc4)n3)C2)C1=O (stereo partly drawn)
[reply] Not fulfilled

[ask] Then what about the compound CN1CCN([C@@H]2CCCN(c3cnc(C(N)=O)c(Nc4cnn(C5CCN(CC6CCN(c7ccc8c(c7)C(=O)N(C7CCC(=O)NC7=O)C8=O)CC6)CC5)c4)n3)C2)C1=O (stereo partly drawn) ?
[reply] Fulfilled

[ask] Next entry: NC(=O)c1ncc(-c2nccs2)nc1Nc1ccc(C2CCN(C[C@H]3CCN(c4ccc5c(c4)C(=O)N(C4CCC(=O)NC4=O)C5=O)C3)CC2)cc1 (stereo partly drawn)
[reply] Fulfilled

[ask] Another compound to check: CN1CCN([C@@H]2CCCN(c3cnc(C(N)=O)c(Nc4ccc(C5CN(C6CCN(c7ccc8c(c7)C(=O)N(C7CCC(=O)NC7=O)C8=O)CC6)C5)cc4)n3)C2)C1=O (stereo partly drawn)
[reply] Fulfilled

[ask] Try the compound CN1CCN([C@@H]2CCCN(c3cnc(C(N)=O)c(Nc4ccc(C5CCN(C6CN(c7ccc8c(c7)C(=O)N(C7CCC(=O)NC7=O)C8=O)C6)CC5)cc4)n3)C2)C1=O (stereo partly drawn)
[reply] Fulfilled

[ask] Try this compound too: CN1CCN([C@@H]2CCCN(c3cnc(C(N)=O)c(Nc4ccc5c(c4)CCN(CC4CCN(c6ccc7c(c6)C(=O)N(C6CCC(=O)NC6=O)C7=O)CC4)C5)n3)C2)C1=O (stereo partly drawn)
[reply] Not fulfilled

---

# test.system: Protein cereblon/Tyrosine-protein kinase BTK (Homo sapiens, UniProt Q06187+Q96SW2)
# Sequence (Q06187 whole entry): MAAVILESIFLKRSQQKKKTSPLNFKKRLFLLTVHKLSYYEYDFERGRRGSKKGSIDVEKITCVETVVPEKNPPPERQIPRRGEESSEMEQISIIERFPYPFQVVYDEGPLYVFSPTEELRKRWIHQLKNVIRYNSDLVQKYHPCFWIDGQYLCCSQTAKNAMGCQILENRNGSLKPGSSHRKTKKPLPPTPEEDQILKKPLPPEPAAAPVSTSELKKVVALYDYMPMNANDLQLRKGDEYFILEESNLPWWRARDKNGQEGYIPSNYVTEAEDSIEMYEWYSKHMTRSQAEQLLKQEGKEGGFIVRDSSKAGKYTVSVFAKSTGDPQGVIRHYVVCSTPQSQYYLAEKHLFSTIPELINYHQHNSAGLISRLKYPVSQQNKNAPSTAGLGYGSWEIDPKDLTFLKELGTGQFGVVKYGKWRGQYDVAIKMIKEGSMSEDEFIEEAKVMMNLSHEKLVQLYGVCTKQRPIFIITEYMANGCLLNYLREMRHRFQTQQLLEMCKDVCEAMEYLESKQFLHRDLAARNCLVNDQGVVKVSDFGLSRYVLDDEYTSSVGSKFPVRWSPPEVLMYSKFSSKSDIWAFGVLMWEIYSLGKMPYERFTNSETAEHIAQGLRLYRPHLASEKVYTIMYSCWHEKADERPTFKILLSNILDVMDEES
# Sequence (Q96SW2 whole entry): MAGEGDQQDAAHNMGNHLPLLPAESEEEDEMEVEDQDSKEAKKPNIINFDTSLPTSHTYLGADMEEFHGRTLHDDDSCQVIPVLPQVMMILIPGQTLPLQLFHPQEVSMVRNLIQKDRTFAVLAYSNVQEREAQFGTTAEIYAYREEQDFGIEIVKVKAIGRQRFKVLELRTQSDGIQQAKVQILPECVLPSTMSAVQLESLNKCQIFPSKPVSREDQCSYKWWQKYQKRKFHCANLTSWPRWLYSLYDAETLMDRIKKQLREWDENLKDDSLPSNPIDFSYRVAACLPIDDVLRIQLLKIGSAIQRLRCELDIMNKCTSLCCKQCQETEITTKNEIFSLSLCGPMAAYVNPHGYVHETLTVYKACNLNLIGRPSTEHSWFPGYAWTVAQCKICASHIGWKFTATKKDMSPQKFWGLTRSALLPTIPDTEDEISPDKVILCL
# assay.info: PROTAC activity at CRBN/BTK in human TMD8 cells assessed as degradation of BTK protein incubated for 4 hrs by HTRF assay
# Type: cell-based
property.name: DC50 (nM)
Write the answer as a number in nM, unit excluded.

[ask] What is its DC50 for Protein cereblon/Tyrosine-protein kinase BTK (Homo sapiens, UniProt Q06187+Q96SW2)? Entry: CN1CCN([C@@H]2CCCN(c3cnc(C(N)=O)c(Nc4ccc5c(c4)CCN(CC4CCN(c6ccc7c(c6)C(=O)N(C6CCC(=O)NC6=O)C7=O)CC4)C5)n3)C2)C1=O (stereo not given in full)
[reply] 1.2

[ask] Repeat for the following compound: CN1CCN([C@@H]2CCCN(c3cnc(C(N)=O)c(Nc4ccc(C5CCN(Cc6ccc7c(c6)C(=O)N(C6CCC(=O)NC6=O)C7=O)CC5)cc4)n3)C2)C1=O (stereo not given in full)
[reply] 17

[ask] Now consider NC(=O)c1ncc(N2CCCCC2)nc1Nc1ccc(C2CCN(C[C@H]3CCN(c4ccc5c(c4)C(=O)N(C4CCC(=O)NC4=O)C5=O)C3)CC2)cc1 (stereo not given in full) [ZELEBRUDOMIDE] and answer again.
[reply] 4.5

[ask] Again, but for CN1CCN([C@@H]2CCCN(c3cnc(C(N)=O)c(Nc4ccc(C5CN(C6CCN(c7ccc8c(c7)C(=O)N(C7CCC(=O)NC7=O)C8=O)CC6)C5)cc4)n3)C2)C1=O (stereo not given in full)
[reply] 0.53

[ask] Lookup CN1CCN([C@@H]2CCCN(c3cnc(C(N)=O)c(Nc4ccc(C5CCN(C[C@H]6CCN(c7ccc8c(c7)C(=O)N(C7CCC(=O)NC7=O)C8=O)C6)CC5)cc4)n3)C2)C1=O (stereo not given in full)
[reply] 0.35

---

# test.system: Cytochrome P450 2C19 (Homo sapiens)
# Sequence (P33261 whole entry): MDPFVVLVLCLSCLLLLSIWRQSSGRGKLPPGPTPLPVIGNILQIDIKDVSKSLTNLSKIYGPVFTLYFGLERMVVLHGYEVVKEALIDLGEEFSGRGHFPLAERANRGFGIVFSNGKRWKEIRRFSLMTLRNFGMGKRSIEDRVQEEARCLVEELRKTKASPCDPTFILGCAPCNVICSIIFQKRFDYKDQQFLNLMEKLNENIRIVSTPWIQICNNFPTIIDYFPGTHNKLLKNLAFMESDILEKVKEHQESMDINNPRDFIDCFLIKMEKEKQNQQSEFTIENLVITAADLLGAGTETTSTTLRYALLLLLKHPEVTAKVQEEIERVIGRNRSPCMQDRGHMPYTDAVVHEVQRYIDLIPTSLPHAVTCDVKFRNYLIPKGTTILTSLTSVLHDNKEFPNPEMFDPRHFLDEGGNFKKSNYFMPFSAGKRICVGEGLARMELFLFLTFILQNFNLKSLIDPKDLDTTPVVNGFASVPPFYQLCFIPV
pIC50: −log10 of the molar value.
property.name: pIC50

[ask] Look up pIC50 for this molecule: NC(=O)c1ncc(N2CCCCC2)nc1Nc1ccc(C2CCN(C[C@H]3CCN(c4ccc5c(c4)C(=O)N(C4CCC(=O)NC4=O)C5=O)C3)CC2)cc1 (stereo partly specified) [ZELEBRUDOMIDE]
[reply] < 4.52

---

# test.system: Voltage-gated inwardly rectifying potassium channel KCNH2 (Homo sapiens, UniProt Q12809)
# Sequence (Q12809 whole entry): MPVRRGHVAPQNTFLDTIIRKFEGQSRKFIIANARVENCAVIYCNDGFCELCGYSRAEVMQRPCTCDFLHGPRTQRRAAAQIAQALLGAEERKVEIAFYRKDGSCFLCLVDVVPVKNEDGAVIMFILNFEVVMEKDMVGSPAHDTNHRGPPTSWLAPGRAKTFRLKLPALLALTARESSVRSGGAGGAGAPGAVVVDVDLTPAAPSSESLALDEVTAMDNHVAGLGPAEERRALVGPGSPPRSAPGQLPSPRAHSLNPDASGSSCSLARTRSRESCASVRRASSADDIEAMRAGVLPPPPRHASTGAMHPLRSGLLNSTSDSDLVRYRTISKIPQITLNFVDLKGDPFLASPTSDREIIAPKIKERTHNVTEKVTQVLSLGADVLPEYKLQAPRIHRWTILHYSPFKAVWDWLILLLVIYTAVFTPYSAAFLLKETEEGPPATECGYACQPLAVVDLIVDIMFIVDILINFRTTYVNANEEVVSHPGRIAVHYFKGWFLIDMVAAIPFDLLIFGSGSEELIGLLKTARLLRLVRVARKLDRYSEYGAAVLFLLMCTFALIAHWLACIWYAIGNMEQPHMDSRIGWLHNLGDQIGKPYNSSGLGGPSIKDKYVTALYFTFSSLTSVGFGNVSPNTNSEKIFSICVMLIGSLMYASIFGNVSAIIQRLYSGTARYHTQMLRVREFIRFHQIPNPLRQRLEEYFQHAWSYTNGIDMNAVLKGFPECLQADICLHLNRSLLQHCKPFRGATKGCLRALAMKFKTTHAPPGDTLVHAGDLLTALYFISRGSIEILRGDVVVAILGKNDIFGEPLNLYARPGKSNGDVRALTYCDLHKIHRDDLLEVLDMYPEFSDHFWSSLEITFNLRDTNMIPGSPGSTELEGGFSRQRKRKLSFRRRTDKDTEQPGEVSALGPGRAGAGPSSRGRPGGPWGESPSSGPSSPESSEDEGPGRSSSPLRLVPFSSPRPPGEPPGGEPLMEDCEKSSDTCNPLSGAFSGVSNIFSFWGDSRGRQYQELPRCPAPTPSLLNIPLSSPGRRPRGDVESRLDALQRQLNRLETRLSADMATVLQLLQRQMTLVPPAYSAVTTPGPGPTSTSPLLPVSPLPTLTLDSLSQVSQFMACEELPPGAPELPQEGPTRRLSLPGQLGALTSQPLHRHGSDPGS
property.name: IC50

[ask] Quick one: IC50 of NC(=O)c1ncc(N2CCCCC2)nc1Nc1ccc(C2CCN(C[C@H]3CCN(c4ccc5c(c4)C(=O)N(C4CCC(=O)NC4=O)C5=O)C3)CC2)cc1 (stereo partly specified) [ZELEBRUDOMIDE] ?
[reply] > 30 µM

---

# test.system: Protein cereblon/Tyrosine-protein kinase BTK (Homo sapiens, UniProt Q06187+Q96SW2)
# assay.info: PROTAC activity at CRBN/BTK in human TMD8 cells assessed as degradation of BTK protein incubated for 4 hrs by HTRF assay
# Assay type: cell-based
I'd appreciate it if you could supply DC50 values for the items below.
I only need the number, in nM, no unit after it.

[ask] Consider the compound CN1CCN([C@@H]2CCCN(c3cnc(C(N)=O)c(Nc4ccc(N5CCC6(CCN(c7ccc8c(c7)C(=O)N(C7CCC(=O)NC7=O)C8=O)CC6)CC5)nc4)n3)C2)C1=O (stereo partly drawn) and give its measured DC50.
[reply] 4.3

[ask] One more compound: CN1CCN([C@@H]2CCCN(c3cnc(C(N)=O)c(Nc4ccc(C5CCN(C6CN(c7ccc8c(c7)C(=O)N(C7CCC(=O)NC7=O)C8=O)C6)CC5)cc4)n3)C2)C1=O (stereo partly drawn)
[reply] 1.2

[ask] Similarly, CN1CCN([C@@H]2CCCN(c3cnc(C(N)=O)c(Nc4ccc(C5CCN(C[C@H]6CCN(c7ccc8c(c7)CN(C7CCC(=O)NC7=O)C8=O)C6)CC5)cc4)n3)C2)C1=O (stereo partly drawn) ?
[reply] 0.25

---

Task for the reader: assign each of the following compounds its reported solubility.
# assay.info: Aqueous solubility of the compound in PBS at pH 7.4
# Assay type: physicochemical
Reply with just the number (in µM).

[ask] Record request: solubility value, item NC(=O)c1ncc(N2CCCCC2)nc1Nc1ccc(C2CCN(C[C@H]3CCN(c4ccc5c(c4)C(=O)N(C4CCC(=O)NC4=O)C5=O)C3)CC2)cc1 (some centres not stated) [ZELEBRUDOMIDE]
[reply] 0.2

[ask] What do you have for CN1CCN([C@@H]2CCCN(c3cnc(C(N)=O)c(Nc4ccc(C5CCN(C[C@H]6CCN(c7ccc8c(c7)C(=O)N(C7CCC(=O)NC7=O)C8=O)C6)CC5)cc4)n3)C2)C1=O (some centres not stated) ?
[reply] 0.3
